Reported pIC50 values for a set of compounds
Molecular target: human liver cathepsin L (Homo sapiens, UniProt P07711)
Construct: 8.7 ng/mL human liver cathepsin L (Calbiochem 219402); purchased Calbiochem 219402; host or cells: human liver
Sequence (P07711 114-288 limits assumed): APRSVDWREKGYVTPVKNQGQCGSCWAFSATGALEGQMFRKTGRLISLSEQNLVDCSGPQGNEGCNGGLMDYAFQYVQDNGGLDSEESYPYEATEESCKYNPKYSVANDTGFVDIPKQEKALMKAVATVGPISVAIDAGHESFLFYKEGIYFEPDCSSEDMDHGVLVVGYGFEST
Sequence (P07711 292-333 limits assumed): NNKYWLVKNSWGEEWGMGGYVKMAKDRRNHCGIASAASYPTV
Assay: Cathepsin L assay, IC50 determination
Format: biochemical
Details: Table 1; read-out: IC50 Cat L
pIC50: −log10 of the molar value.

COMPOUND	pIC50
CCc1ccccc1NC(=O)CSC(=O)NNC(=O)C[C@H](COCc1ccccc1)NC(=O)OC(C)(C)C [Compound No. 82]	< 4.60
CC(C)(C)OC(=O)N[C@@H](CCCCNC(=O)OCc1ccccc1)C(=O)NNC(=O)SCC(=O)N1CCCc2ccccc21 [Compound No. 57]	< 4.60
CCc1ccccc1NC(=O)CSC(=O)NNC(=O)[C@H](CCC(=O)O)NC(=O)OC(C)(C)C [Compound No. 27]	≤ 4.60
CCc1ccccc1NC(=O)CSC(=O)NNC(=O)[C@@H](Cc1c[nH]c2ccccc12)NC(=O)OC(C)(C)C [Compound No. 16]	< 4.60
CCc1ccccc1NC(=O)CSC(=O)NNC(=O)[C@H](C)CO [Compound No. 67]	< 4.60
CCc1ccccc1NC(=O)CSC(=O)NNC(=O)CNC(=O)OC(C)(C)C [Compound No. 64]	< 4.60

* * *

Target: human liver cathepsin L (Homo sapiens, UniProt P07711)
Construct: 8.7 ng/mL human liver cathepsin L (Calbiochem 219402); purchased Calbiochem 219402; host or cells: human liver
Assay: Cathepsin L assay, IC50 determination
Format: biochemical
Details: Table 1; read-out: IC50 Cat L
Reported IC50 by item:

COMPOUND	IC50
C[C@@H](CO)C(=O)NNC(=O)SCC(=O)N1CCCc2ccccc21 [Compound No. 70]	> 25 µM
CCc1ccccc1NC(=O)CSC(=O)NNC(=O)CCc1c[nH]c2ccccc12 [Compound No. 73]	> 25 µM
CCc1ccccc1NC(=O)CSC(=O)NNC(=O)C[C@@H]1CCCN1C(=O)OC(C)(C)C [Compound No. 80]	> 25 µM

* * *

Molecular target: Human spleen cathepsin S (Homo sapiens, UniProt P25774)
Construct: Human spleen cathepsin S (Calbiochem 219344, 40 ng/mL); purchased Calbiochem 219344; host or cells: human spleen
Sequence (P25774 115-331): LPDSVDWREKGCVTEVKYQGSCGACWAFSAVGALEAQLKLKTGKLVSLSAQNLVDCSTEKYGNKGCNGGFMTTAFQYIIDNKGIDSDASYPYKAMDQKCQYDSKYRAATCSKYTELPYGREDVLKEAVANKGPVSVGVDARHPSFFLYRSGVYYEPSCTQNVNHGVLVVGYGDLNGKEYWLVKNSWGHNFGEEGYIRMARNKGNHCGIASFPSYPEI
Experiment: Cathepsin S assay, IC50 determination
Format: biochemical
Conditions: Table 1; read-out: IC50 Cat S
pIC50: −log10 of the molar value.

COMPOUND	ASSAY_TARGET	pIC50
CCc1ccccc1NC(=O)CSC(=O)NNC(=O)[C@@H](Cc1c[nH]c2ccccc12)NC(=O)OC(C)(C)C [Compound No. 16]	Human spleen cathepsin S (Homo sapiens, UniProt P25774)	< 4.60
CCc1ccccc1NC(=O)CSC(=O)NNC(=O)[C@@H](C)COCc1ccc(OC)cc1 [Compound No. 72]	Human spleen cathepsin S (Homo sapiens, UniProt P25774)	< 4.60
CC(C)(C)OC(=O)N[C@@H](CCC(=O)NC1c2ccccc2Oc2ccccc21)C(=O)NNC(=O)SCC(=O)N1CCCc2ccccc21 [Compound No. 60]	Human spleen cathepsin S (Homo sapiens, UniProt P25774)	< 4.60
CCc1ccccc1NC(=O)CSC(=O)NNC(=O)CCc1c[nH]c2ccccc12 [Compound No. 73]	Human spleen cathepsin S (Homo sapiens, UniProt P25774)	< 4.60
CCc1ccccc1NC(=O)CSC(=O)NNC(=O)C[C@@H](NC(=O)OC(C)(C)C)C(C)C [Compound No. 78]	Human spleen cathepsin S (Homo sapiens, UniProt P25774)	< 4.60

* * *

Target: Human spleen cathepsin S (Homo sapiens, UniProt P25774)
Construct: Human spleen cathepsin S (Calbiochem 219344, 40 ng/mL); purchased Calbiochem 219344; host or cells: human spleen
Test: Cathepsin S assay, IC50 determination
Format: biochemical
Conditions: Tables 2-11; read-out: Cat S
pIC50: −log10 of the molar value.
QUANTITY_NAME: pIC50

SMILES_TEXT	QUANTITY_NAME	EXPERIMENTAL_RESULT
CSCC[C@H](NC(=O)OC(C)(C)C)C(=O)NNC(=S)SCC(=O)N1CCc2ccccc21	pIC50	≤ 4.60
CC(C)(C)OC(=O)N[C@@H](Cc1c[nH]c2ccccc12)C(=O)NNC(=O)[C@@H](Cc1c[nH]c2ccccc12)NC(=O)OC(C)(C)C	pIC50	≤ 4.60
CC(C)(C)OC(=O)N[C@H](Cc1c[nH]c2ccccc12)C(=O)NN	pIC50	≤ 4.60
